Where do these numbers come from? They come from patent US20220363763A1.

Biological target: T1, recombinant his-tag human LAG3-ECD protein (human, UniProt P18627 23-450)
T1 construct: extracellular domain; not shown: his tag
T1 sequence (looked up): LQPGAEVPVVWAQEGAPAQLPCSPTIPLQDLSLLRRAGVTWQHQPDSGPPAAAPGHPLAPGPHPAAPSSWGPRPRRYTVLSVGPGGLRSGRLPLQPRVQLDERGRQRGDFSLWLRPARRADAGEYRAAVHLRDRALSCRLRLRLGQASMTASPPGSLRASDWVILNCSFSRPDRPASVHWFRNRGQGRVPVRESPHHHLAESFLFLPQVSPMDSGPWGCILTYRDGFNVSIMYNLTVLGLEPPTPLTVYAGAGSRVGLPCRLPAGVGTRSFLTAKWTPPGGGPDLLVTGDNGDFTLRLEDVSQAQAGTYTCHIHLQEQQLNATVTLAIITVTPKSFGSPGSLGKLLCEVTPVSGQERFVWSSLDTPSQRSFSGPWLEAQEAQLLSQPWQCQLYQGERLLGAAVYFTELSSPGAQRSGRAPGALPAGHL
Assay: SPR Biacore T200, capture method as Example 2.7
Experimental Endpoint: Kd (nM)
Express the result in nM but write the number alone.

147H 3549 (antibody, V domains shown) VH: EVQLVQSGAEVKKPGASVKVSCKASGYTFTNYWLGWIKQAPGQGLEWIGDIYPGGDYINYNEKFKGKATLTADTSISTAYMELSRLRSDDTAVYYCARPNLPKDHWGQGTTVTVSS VL: DIVMTQSPLSLPVTPGEPASISCRSSKSLLHSNAITYLYWYLQKPGQSPQLLIYQVSNLASGVPDRFSGSGSGTDFTLKISRVEAEDVGVYYCAQYLEEPWTFGGGTKVEIK :: 0.92

Now turn to the next binder.
# input Consider the binder shown here: 147H 3794 (antibody, V domains shown) VH: EVQLVQSGAEVKKPGASVKVSCKASGYLFTNYWLGWIKQAPGQGLEWIGDIYPGGDYIVYNEKFKGKATLTADTSISTAYMELSRLRSDDTAVYYCARPNLPGDYWGQGTTVTVSS VL: DIVMTQSPLSLPVTPGEPASISCRSSKSLLHSNAITYLYWYLQKPGQSPQLLIYQVSNLASGVPDRFSGSGSGTDFTLKISRVEAEDVGVYYCAQYLELPWTFGGGTKVEIK What is its recorded Kd?
# output 0.72
